subject_of_test: T1, CHO-hu α11 (Homo sapiens, UniProt Q9UKX5)
T1 construct: expressed in transfected cells; host or cells: CHO-K1
assay_overview: FACS antibody binding to CHO-K1 cells expressing human α11
test_context: Table 13, 79E3E3 variants
measurement_label: EC50 (nM)
The reply should be a number in nM, with the unit left off.

Before answering, review these 3 worked examples.
{"molecule": "A11BB134: 79E3E3 variant; VH SEQ ID NO: 10, VL SEQ ID NO: 22 (antibody, V domains shown) VH: QIQLVQSGSELKKPGASVKISCKASGYTFTDYAMNWVKQAPGQGLEWMGWINTQTGKPTYAQGFTGRFVFSLDTSVSTAYLQISSLKAEDTAVYFCTRLGTGNTKGFAYWGQGTLVTVSS VL: DIQMTQSPSSLSASVGDRVTITCKSSQSLLYSENNQDYLAWYQQKPGKVPKLLIYGASNRHTGVPSRFSGSGSGTDFTLTISSLQPEDVATYYCEQTYRYPFTFGQGTKLEIK", "unit_spec": "nM", "EC50": 3.49}
{"molecule": "79E3E3: anti-α11β1 monoclonal antibody from rat hybridoma; VH SEQ ID NO: 8, VL SEQ ID NO: 20 (antibody, V domains shown) VH: QIQLVQSGPEVKKPGESVKISCKASGYTFTDYAMNWVKQAPGNGLKWMGWINTQTGKPTYADDFKQRFVFSLETSARTTYLQINNLNIEDTATYFCTRLGTGNTKGFAYWGQGTLVTVSS VL: DILINQSPASLTVSAGERVTMSCKSSQSLLYSENNQDYLAWYQQKPGQFPKLLIYGASNRHTGVPDRFTGSGSGTDFTLTISSVQAEDLADYYCEQTYRYPFTFGSGTKLEIK", "unit_spec": "nM", "EC50": 2.5}
{"molecule": "A11BB140: 79E3E3 variant; VH SEQ ID NO: 7, VL SEQ ID NO: 22 (antibody, V domains shown) VH: QIQLVQSGAEVKKPGSSVKVSCKASGYTFTDYAMNWVRQAPGQGLEWMGWINTQTGKPTYAQKFQGRVTFTLDESTSTTYMELSSLRSEDTAVYYCTRLGTGNTKGFAYWGQGTLVTVSS VL: DIQMTQSPSSLSASVGDRVTITCKSSQSLLYSENNQDYLAWYQQKPGKVPKLLIYGASNRHTGVPSRFSGSGSGTDFTLTISSLQPEDVATYYCEQTYRYPFTFGQGTKLEIK", "unit_spec": "nM", "EC50": 2.5}

Continue with the next molecule.
Quick one: give measured EC50 for A11BB133: 79E3E3 variant; VH SEQ ID NO: 4, VL SEQ ID NO: 21 (antibody, V domains shown) VH: QIQLVQSGSELKKPGASVKVSCKASGYTFTDYAMNWVRQAPGQGLEWMGWINTQTGKPTYAQGFTGRFVFSLDTSVSTAYLQISSLKAEDTAVYYCTRLGTGNTKGFAYWGQGTLVTVSS VL: DIQITQSPSSLSASVGDRVTITCKSSQSLLYSENNQDYLAWYQQKPGKVPKLLIYGASNRHTGVPSRFSGSGSGTDFTLTISSLQPEDVATYYCEQTYRYPFTFGQGTKLEIK
5.13
